SYSTEM_TESTED: T1, untagged APOL1-G0, KIK variant, transiently expressed (COS cells) (human, UniProt O14791 29-398)
T1 construct: Origene SC109941 clone with E150K, M228I, R255K
T1 chain: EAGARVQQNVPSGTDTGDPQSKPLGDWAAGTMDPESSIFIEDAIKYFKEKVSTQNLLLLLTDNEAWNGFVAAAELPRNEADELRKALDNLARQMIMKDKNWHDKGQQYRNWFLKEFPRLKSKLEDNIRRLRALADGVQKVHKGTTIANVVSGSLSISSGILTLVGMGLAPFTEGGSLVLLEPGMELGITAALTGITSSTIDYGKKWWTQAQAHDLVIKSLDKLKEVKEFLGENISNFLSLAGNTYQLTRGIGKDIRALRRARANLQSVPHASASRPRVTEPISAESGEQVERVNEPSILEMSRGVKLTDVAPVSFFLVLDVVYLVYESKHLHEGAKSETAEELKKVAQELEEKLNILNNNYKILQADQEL
MEASUREMENT_DESCRIPTION: immunofluorescence on transfected COS cells, 1 µg/ml; grade
ATTRIBUTE_MEASURED: binding result

Record excerpt, results attached:
antibody 3.1C1 (antibody, V domains shown, Mouse mAb, cloned as murine IgG2a LALAPG; not written separately; also called SRA-ID mAb 3.1C1) VH: QVQLQQSGPELVKPGASVRISCKASGYTFTNYFIHWVKQRPGQGLEWIGWINPGNLNTKYTEEFKGKATLTADKSSSTAYIQLNSLTSEDSAVYFCVNGNPFVYWGQGTLVTVSA VL: DIVMTQSPSSLTVIAGEKVTLNCKSSQSLLNSGNQKKYLTWLQQKPGQPPKLLIYWTSTRDSGVPDRFTGSGSGTDFTLTISSVQAEDLAVYYCQNDYSYPLTFGAGTKLEIKR; binds
antibody 3.7D6 (antibody, V domains shown, Mouse mAb, cloned as murine IgG2a LALAPG; those versions are not written separately; also called PFD antibody 3.7D6) VH: QIQLVQSGPDLKKPGETVKISCRTSGYAFTNYGVNWVKQAPGKGLKWMGWINTNTGQTTYAEEFRGRFAISLETSASTAFLTISNLKNEDSATYFCARLIYDGDYISSDFWGQGTTLTVSS VL: DIQMTQSPDSLSASVGETVTITCGASENIYGALNWYQRKQGKSPQLLIYGATNLADGMSSRFSGSRSGRQYSLKISSLHPDDVATYYCQNALSMPYTFGGGTKLEIKR; binds
antibody 4.2C4 (antibody, V domains shown, Mouse mAb, cloned as murine IgG2a LALAPG) VH: QVQLQQSGPELVKPGASVKMSCKASGYTFTDYVISWVKQRTGQGLEWIGEMFPGSGTTYYTEKFRGKATLTADKSSNTAYMQLSSLTSEDSAVYFCARGTTADYWGQGTTLTVSS VL: ENVLTQSPAIMSASLGEKVTMSCRASSSVNYMYWYQQKSDASPKLWIYYTSNLAPGVPARFSGSGSGNSYSLTISSMEGEDAATYYCQQFTSSPYTFGGGTKLEIKR; binds
antibody 4.17A5 (antibody, V domains shown, Mouse mAb (Method #4), cloned as murine IgG2a LALAPG; also called mAb 4.17A5) VH: QVQLQQSGPELLKPGASVKISCKGSGYAFSNSWINWVKLRPGQGLEWIGRIYPGDGDTKYNGKFKGKATLTADKSSSTAHMQLRSLTSVDSAVYFCARFPFGKYEGPGAMDYWGQGTSVTVSS VL: DIQMTQTTSSLSASLGDRVTISCRASQDISSYLNWYQQKPDGTIKLLIYYTSRLHSGVPSRFSGSGSGTDFSLTISNLEQEDIATYFCQQGNTLPYTFGGGTKLEIKR; binds

Now for another entry.
Challenge: Record request: binding result value, item antibody 3.6E10 (antibody, V domains shown, Mouse mAb, cloned as murine IgG2a LALAPG) VH: QVQLQQSGAELAKPGASVKMSCKASGYIFTSYYLHWVKQRPGQGLEWIGYINPNTGYTEYTQNFKDRATLTADKSSSTAYMQLTSLTSEDSAVYFCVNGNPFVYWGQGTLVTVSA VL: DIVMTQSPSSLTVTTGEKVTMTCRSSQSLLNSGNQKNYLTWFQQKPGQPPKLLIYWTSTRYSGVPDRFTGSGSGTDFTLTISSVQAEDLAVYYCQNDYSYPLTFGAGTKLEIKR
Response given: binds
